# TARGET: fusion protein PRT
# Sequence (chain, as listed by the source): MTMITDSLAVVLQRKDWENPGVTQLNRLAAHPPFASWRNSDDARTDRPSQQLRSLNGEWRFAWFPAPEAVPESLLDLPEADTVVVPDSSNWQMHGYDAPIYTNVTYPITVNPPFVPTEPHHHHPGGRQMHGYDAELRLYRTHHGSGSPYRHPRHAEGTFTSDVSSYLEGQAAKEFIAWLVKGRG

{"PROTEIN": "OmpT protease variant OmpT D97K (protein) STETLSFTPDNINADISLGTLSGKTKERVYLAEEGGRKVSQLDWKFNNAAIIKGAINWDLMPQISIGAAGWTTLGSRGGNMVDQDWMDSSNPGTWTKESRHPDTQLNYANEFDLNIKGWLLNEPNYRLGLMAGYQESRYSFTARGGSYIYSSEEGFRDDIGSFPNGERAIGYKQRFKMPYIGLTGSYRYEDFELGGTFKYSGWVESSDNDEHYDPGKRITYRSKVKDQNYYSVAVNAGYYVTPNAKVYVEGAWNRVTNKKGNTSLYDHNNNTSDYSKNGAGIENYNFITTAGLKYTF", "relative cleavage efficiency": "less than 3.0%"}
{"PROTEIN": "OmpT protease variant OmpT D97L (protein) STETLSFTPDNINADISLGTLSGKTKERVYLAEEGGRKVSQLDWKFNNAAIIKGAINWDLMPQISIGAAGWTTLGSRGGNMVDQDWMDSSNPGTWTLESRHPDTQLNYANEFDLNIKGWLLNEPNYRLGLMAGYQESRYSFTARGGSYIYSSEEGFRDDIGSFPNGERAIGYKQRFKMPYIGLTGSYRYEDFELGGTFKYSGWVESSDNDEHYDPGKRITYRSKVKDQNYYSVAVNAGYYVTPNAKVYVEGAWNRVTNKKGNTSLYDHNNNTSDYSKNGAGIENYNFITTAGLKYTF", "relative cleavage efficiency": "< 3%"}
{"PROTEIN": "OmpT protease variant OmpT D97C (protein) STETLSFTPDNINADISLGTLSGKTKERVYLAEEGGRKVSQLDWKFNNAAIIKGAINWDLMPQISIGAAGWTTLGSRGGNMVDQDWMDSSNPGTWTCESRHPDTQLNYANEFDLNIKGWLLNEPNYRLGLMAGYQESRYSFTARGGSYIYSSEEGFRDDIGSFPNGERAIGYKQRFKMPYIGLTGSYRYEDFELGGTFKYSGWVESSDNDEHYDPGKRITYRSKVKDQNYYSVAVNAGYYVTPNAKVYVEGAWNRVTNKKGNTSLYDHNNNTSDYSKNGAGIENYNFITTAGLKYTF", "relative cleavage efficiency": "< 3%"}
{"PROTEIN": "OmpT protease variant OmpT D97I (protein) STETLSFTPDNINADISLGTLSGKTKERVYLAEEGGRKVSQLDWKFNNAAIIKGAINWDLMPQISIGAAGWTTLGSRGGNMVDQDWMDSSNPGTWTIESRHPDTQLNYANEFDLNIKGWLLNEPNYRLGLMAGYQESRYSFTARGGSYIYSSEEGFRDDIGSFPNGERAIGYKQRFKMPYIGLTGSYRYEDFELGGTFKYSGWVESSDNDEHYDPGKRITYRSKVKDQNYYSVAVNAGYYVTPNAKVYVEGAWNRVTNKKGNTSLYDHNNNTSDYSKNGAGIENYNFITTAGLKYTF", "relative cleavage efficiency": "less than 3.0%"}
